- test target: human cloned somatostatin receptor 1 (human) (UniProt P30872)
- Sequence (P30872 whole entry): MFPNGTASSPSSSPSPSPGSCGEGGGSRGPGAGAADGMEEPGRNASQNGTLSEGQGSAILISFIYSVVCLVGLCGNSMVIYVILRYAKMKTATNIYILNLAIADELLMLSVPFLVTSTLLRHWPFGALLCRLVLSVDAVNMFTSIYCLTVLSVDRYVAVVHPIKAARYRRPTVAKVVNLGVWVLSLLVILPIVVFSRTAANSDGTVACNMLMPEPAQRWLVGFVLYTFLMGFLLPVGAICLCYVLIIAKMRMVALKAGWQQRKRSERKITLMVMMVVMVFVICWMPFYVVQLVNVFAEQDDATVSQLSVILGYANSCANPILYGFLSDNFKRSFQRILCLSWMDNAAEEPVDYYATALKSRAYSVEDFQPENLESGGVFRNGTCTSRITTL
- method summary: 125I-Tyr11-SRIF-14 displacement
*1 amine or outer side, *2 acyl side, *3 side chain or, on linkers, in order; H or OH if unused. Bridges are numbered along the chain shown (N, C = ends). [ ]: non-standard residue; d: D form. The star is where a group is joined. DOTA = O=C(O)CN1CCN(CC(=O)O)CCN(CC(=O)*)CCN(CC(=O)O)CC1; N(2-mercaptoethyl)Gly = O=C(CN(CCS[*:3])[*:1])[*:2]; Orn = NCCC[C@H](N)C(=O)O; Aoc = NCCCCCCCC(=O)O
Below, each entry is listed with its recorded % displacement at 1 nM.
Report the value in % with no unit label.

{DOTA}-A[dF]RCF[dW]KTF[N(2-mercaptoethyl)Gly]-NH2 (disulfide 4-10; SMILES C[C@H](NC(=O)CN1CCN(CC(=O)O)CCN(CC(=O)O)CCN(CC(=O)O)CC1)C(=O)N[C@H](Cc1ccccc1)C(=O)N[C@@H](CCCNC(=N)N)C(=O)N[C@H]1CSSCCN(CC(N)=O)C(=O)[C@H](Cc2ccccc2)NC(=O)[C@H]([C@@H](C)O)NC(=O)[C@H](CCCCN)NC(=O)[C@@H](Cc2c[nH]c3ccccc23)NC(=O)[C@H](Cc2ccccc2)NC1=O) [SEQ ID NO: 12] : 0

Recorded % displacement at 1 nM (binder {DOTA}-[dF][Orn]CF[dW]KTF[N(2-mercaptoethyl)Gly]-NH2 (disulfide 3-9) [SEQ ID NO: 21] ): 23

Query {DOTA-Aoc}-[dF]RCF[dW]KTF[N(2-mercaptoethyl)Gly]-NH2 (disulfide 3-9) [SEQ ID NO: 15] yields % displacement at 1 nM of 6
